Assay: Inhibition of bacterial beta-lactamase OXA-48 using nitrocefin as substrate preincubated for 15 mins followed by substrate addition and measured after 10 mins by spectrophotometric analysis
Design: species or system Bacteria
measured-parameter: IC50

CS(=O)(=O)NCCC(=O)N[C@H]1Cc2cccc(C(=O)O)c2OB1O; 4.67 µM
NC(=O)CCC(=O)N[C@H]1Cc2cccc(C(=O)O)c2OB1O; 1.79 µM
CC(=O)CCC(=O)N[C@H]1Cc2cccc(C(=O)O)c2OB1O; 1.45 µM
NS(=O)(=O)CCC(=O)N[C@H]1Cc2cccc(C(=O)O)c2OB1O; 8.55 µM
O=C(CCC(F)(F)F)N[C@H]1Cc2cccc(C(=O)O)c2OB1O; 1.62 µM

The measured IC50 associated with CC(F)(F)CCC(=O)N[C@H]1Cc2cccc(C(=O)O)c2OB1O reads 2.39 µM

The measured IC50 associated with CCCC(=O)N[C@H]1Cc2cccc(C(=O)O)c2OB1O reads 0.426 µM

The measured IC50 associated with C#CCCC(=O)N[C@H]1Cc2cccc(C(=O)O)c2OB1O reads 0.627 µM

====

Assay: Inhibition of bacterial beta-lactamase AmpC using nitrocefin as substrate preincubated for 15 mins followed by substrate addition and measured after 10 mins by spectrophotometric analysis
Set-up: species or system Bacteria
compounds and their reported IC50
Output spec: scalar in nM, unitless text.

CC(F)(F)CCC(=O)N[C@H]1Cc2cccc(C(=O)O)c2OB1O; 7
CS(=O)(=O)NCCC(=O)N[C@H]1Cc2cccc(C(=O)O)c2OB1O; 5

The measured IC50 associated with NC(=O)CCC(=O)N[C@H]1Cc2cccc(C(=O)O)c2OB1O reads 6

====

Tested on: Klebsiella pneumoniae
Experiment: Antibacterial activity against Klebsiella pneumoniae expressing OXA-48 assessed as concentration required to restore ceftibuten activity incubated for 16 to 20 hrs in presence of 1 ug/ml ceftibuten by broth microdilution method
Type: functional
Conditions: time 16-20 hrs
measured-parameter: Activity (µg/mL)
Output spec: scalar in µg/mL, unitless text.

NS(=O)(=O)CCC(=O)N[C@H]1Cc2cccc(C(=O)O)c2OB1O; 2
CS(=O)(=O)NCCC(=O)N[C@H]1Cc2cccc(C(=O)O)c2OB1O; 2
N#CCCC(=O)N[C@H]1Cc2cccc(C(=O)O)c2OB1O; 2
C#CCCC(=O)N[C@H]1Cc2cccc(C(=O)O)c2OB1O; 4
Nc1nc(/C(=C/CC(=O)O)C(=O)N[C@@H]2C(=O)N3C(C(=O)O)=CCS[C@H]23)cs1; 256

The measured Activity associated with CCC(=O)N[C@H]1Cc2cccc(C(=O)O)c2OB1O reads 1

The measured Activity associated with CC(F)(F)CCC(=O)N[C@H]1Cc2cccc(C(=O)O)c2OB1O reads 4

The measured Activity associated with NC(=O)CCC(=O)N[C@H]1Cc2cccc(C(=O)O)c2OB1O reads 0.5

The measured Activity associated with CC(=O)CCC(=O)N[C@H]1Cc2cccc(C(=O)O)c2OB1O reads 4

Origin of the recorded values: ChEMBL document CHEMBL5034013
